Source of measurements: the supplement of paper PMC10567573

B1: CDC25B (parent)
chain: KSPIAPCSLDKRVILIFHCEFSSE

Variants of: B1
Experiment: protein stability index of a GFP-peptide fusion (GPS, HEK-293T) (PSI 1-6); higher = more stable;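 also: lentivirally expressed fusions sorted by FACS into six bins by GFP to DsRed ratio, PSI derived from sequencing read proportions per bin multiplied by bin number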
Experimental setup: c terminus: a fixed tail appended
protein stability index below 3 gives F; protein stability index at or above it gives T.

[[record]]
sequence_change = "K11I"
discrete_label = "T"

[[record]]
sequence_change = "F17I"
discrete_label = "F"

[[record]]
sequence_change = "I4F"
discrete_label = "F"

[[record]]
sequence_change = "S23L"
discrete_label = "F"

[[record]]
sequence_change = "V13P"
discrete_label = "F"


Please tell me: is the variant "S8D" at or over 3 in terms of protein stability index? F

Please tell me: is the variant "C7I" at or over 3 in terms of protein stability index? T
